- systemName: T1, membrane-bound full-length human HVEM on stable HVEM-transfected HEK293F cells (clone no. 128) (human, UniProt Q92956 39-283)
- T1 construct: The same cDNA was also expressed on Sf9 insect cells; also called TNFRSF14; CD270
- T1 sequence: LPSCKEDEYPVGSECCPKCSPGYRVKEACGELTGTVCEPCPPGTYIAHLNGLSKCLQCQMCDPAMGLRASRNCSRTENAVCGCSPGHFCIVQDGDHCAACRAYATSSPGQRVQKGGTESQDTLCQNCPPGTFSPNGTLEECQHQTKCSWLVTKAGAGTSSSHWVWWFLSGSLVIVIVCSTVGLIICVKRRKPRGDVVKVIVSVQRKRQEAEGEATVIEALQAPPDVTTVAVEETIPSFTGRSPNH
- assay: FACS, biotinylated TNFβ pre-bound, then Ab 20 µg/mL
metric: % displacement of pre-bound ligand

Worked cases, answers included:
[
  {
    "binder": "chimeric mouse/human IgG4/kappa anti-human HVEM antibody no. 45H6 (antibody, V domains shown, 24/25 within the entry; Stabilized human IgG4 (S239P) already in the entry; also called chimeric 45H6) VH: DVQLVESGGGLVQPGGSRKLSCAASGFTFSSFGMHWVRQAPEKGLEWVAYISSGNSNIYYVDTVKGRFTISRDNPKNTLFLQMTSLRSEDTAMYYCARKRAYGDYSGFSMDYWGQGTSVTVSS VL: DIVMTQSQKFMSTSVGDRVSVTCKASQNVDTNVAWYQQKPGQSPKALIYSASYRYSGVPDRFTGSGSGTDFTLTISNVQSEDLAEYFCQQYNKFPLTFGGGTKLEIKR",
    "% displacement of pre-bound ligand": "> 90%"
  },
  {
    "binder": "chimeric mouse/human IgG4/kappa anti-human HVEM antibody no. 36H12 (antibody, V domains shown, 16/17 within the entry; Stabilized human IgG4 (S239P) already in the entry; also called chimeric 36H12) VH: EVQLQQSGAGLVKPGASVKLSCTASGFNIKDTYMHWVRQRPEQGLEWIGRIDPATANTKYDPKFQGKATLTTDTSSNTAYLQLSSLTSEDTAVYYCVTYGYDVSWFAYWGLGALVTVSA VL: DVLMTQTPLSLPVSLGDQASISCRSSQSIVHSNGITYLEWYLQKPGQSPKLLIYKVSNRFSGVPDRFSGSGSGTDFTLKISRVEAEDLGVYYCFQGSHVPLTFGAGTKLELKR",
    "% displacement of pre-bound ligand": "> 90%"
  },
  {
    "binder": "chimeric mouse/human IgG4/kappa anti-human HVEM antibody no. 11H7 (antibody, V domains shown, 40/41 within the entry; Stabilized human IgG4 (S239P) already in the entry; also called chimeric 11H7) VH: QVQLKQSGPGLVQPSQSLSITCTVSGFSLTIYGVHWVRQSPGKGLEWLGVIWSGGSTDYNAAFISRLSISKDNSKSQVFFKMNSLQANDTAIYYCARRDYGSRSFYYAMDYWGQGTSVTVSS VL: EIVLTQSPALMAASPGEKVTITCSVSSSISSSNLHWYQQKSETSPKPWIYGTSNLASGVPVRFSGSGSGTSYSLTISSMEAEDAATYYCQQWSSYPLTFGGGTKLEIKR",
    "% displacement of pre-bound ligand": "< 20%"
  }
]

### Prompt Suppose we examine the binder chimeric mouse/human IgG4/kappa anti-human HVEM antibody no. 49G4 (antibody, V domains shown, 48/49 within the entry; Stabilized human IgG4 (S239P) already in the entry; also called chimeric 49G4) VH: EVQLQQSGAELVKPGASVKLSCRASGFNIKDTYMHWVKQRPEQGLEWIGRIDPARGNTKYDPKFQGKATITADTSSNTAYLQLSSLTSEDTAVYYCASAMDYWGQGTSVTVSS VL: DVLMTQTPLSLPVSLGDQASISCRSSQSIVHSNGNTYLEWFLQKPGQSPKLLIYKVSNRFSGVPDRFSGSGSGTDFTLKISRVEAEDLGVYYCFQGSHVPLTFGAGTKLELKR ; what % displacement of pre-bound ligand value has been reported?
### Response > 55%
